- System: Ba/F3 cells driven by EGFR mutants
- Test description: Ba/F3 proliferation assay (CellTiter-Glo viability), EGFR mutant alleles
- Type: cell-based, murine
- Measurement context: Mus musculus, BaF3, Ba/F3 EGFR del19 C797S, read-out: IC50 EGFR del19 C797S
pIC50: −log10 of the molar value.
Value type: pIC50

Example cases with answers are listed next.
{"columns": ["Smiles repr", "pIC50"],
 "data": [
  ["Cn1cc(-c2cc(C(=O)/N=c3\\[nH]c4ccccc4n3[C@H]3CCC[C@H](O)C3)ccn2)cn1", 8.06],
  ["COc1ccccc1-c1cc(C(=O)/N=c2\\[nH]c3cc(C)ccc3n2[C@H]2CC[C@@H](O)CC2)ccn1", 8.15]
]}

(A) Cn1cc(-c2cc(C(=O)/N=c3\[nH]c4ccccc4n3[C@H]3CC[C@@H](O)CC3)ccn2)cn1
(B) Cn1cc(-c2cc(C(=O)/N=c3\[nH]c4ccccc4n3C3CCCCC3)ccn2)cn1
Prompt line: Hi, I'm comparing A with B and wondering which one has the bigger number for pIC50. Any idea? Selection: enter the item's label.
Response line: A

* * *

- Target entity: EGFR del19 T790M C797S protein in Ba/F3 cells (Homo sapiens, UniProt P00533, C797S/DEL746-750/T790M)
- Sequence (P00533 with tags, fused parts or gaps C797S/DEL746-750/T790M limits assumed): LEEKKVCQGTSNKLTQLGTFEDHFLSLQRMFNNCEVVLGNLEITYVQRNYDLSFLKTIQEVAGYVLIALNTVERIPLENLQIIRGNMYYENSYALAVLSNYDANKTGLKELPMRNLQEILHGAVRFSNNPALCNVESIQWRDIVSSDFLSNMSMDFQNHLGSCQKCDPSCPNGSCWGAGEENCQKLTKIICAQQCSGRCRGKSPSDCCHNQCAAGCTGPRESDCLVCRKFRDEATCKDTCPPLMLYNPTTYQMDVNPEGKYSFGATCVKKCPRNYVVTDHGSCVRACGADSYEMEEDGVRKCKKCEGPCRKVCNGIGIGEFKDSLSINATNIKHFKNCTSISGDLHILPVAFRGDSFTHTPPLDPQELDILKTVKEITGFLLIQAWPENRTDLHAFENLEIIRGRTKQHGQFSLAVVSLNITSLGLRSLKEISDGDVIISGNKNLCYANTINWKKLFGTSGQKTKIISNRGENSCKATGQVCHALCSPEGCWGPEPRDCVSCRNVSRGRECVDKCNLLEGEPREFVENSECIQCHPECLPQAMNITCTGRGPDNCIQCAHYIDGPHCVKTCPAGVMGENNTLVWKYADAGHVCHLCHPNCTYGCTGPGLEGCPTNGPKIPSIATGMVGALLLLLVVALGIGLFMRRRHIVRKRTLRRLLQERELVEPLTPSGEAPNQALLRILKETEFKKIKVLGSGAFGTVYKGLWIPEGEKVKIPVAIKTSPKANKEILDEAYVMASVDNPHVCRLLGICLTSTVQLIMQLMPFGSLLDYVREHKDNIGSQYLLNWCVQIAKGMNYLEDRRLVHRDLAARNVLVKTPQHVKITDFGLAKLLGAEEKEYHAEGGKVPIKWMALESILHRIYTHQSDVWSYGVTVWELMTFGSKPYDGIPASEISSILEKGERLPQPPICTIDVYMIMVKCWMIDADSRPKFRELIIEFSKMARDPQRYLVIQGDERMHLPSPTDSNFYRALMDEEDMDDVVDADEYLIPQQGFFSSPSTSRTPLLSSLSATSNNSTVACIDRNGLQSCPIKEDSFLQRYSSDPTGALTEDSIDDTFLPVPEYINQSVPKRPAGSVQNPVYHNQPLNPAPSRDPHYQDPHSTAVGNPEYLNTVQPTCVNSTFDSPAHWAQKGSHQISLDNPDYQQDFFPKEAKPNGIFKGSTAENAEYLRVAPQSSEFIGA
- Test description: pEGFR assay (AlphaScreen Surefire, EGFR Tyr1068 phosphorylation)
pIC50: −log10 of the molar value.
Value type: pIC50

{"columns": ["Molecule", "Result number"],
 "data": [
  ["Cc1c(-c2cc(C(=O)/N=c3\\[nH]c4cc(N5CCN(C)CC5)ccc4n3CC(C)(C)O)ccn2)cnn1C", 7.55],
  ["CN1CCN(c2ccc3c(c2)[nH]/c(=N\\C(=O)c2ccnc(-c4cnn(C)c4)c2)n3CC(C)(C)O)CC1", 7.15],
  ["COc1ccccc1-c1cc(C(=O)/N=c2\\[nH]c3cc(C4CCN(C(C)=O)C4)ccc3n2CC(C)(C)O)ccn1 (stereo not drawn)", 8.22]
]}

(P) CN(C)CCNc1ccc2c(c1)[nH]/c(=N\C(=O)c1ccnc(-c3cnn(C)c3)c1)n2CC(C)(C)O
(Q) O=C(/N=c1\[nH]c2ccccc2n1[C@H]1CC[C@@H](O)CC1)c1ccnc(-n2ccc3cccnc32)c1
Prompt line: I need your help: which of the pair P , Q has higher pIC50? To answer, give the label that identifies your chosen option.
Response line: Q
(Q: 8.40, P: 7.85)

(P) CC(C)(O)Cn1/c(=N/C(=O)c2ccnc(-c3cccn4cnnc34)c2)[nH]c2ccccc21
(Q) CC(=O)N1CCC(c2ccc3c(c2)[nH]/c(=N\C(=O)c2cc(C)nc(-c4cnn(C)c4)c2)n3[C@H]2CC[C@@H](O)CC2)CC1
Prompt line: Could you tell me which of these two has the smaller pIC50 figure? First: P Second: Q When you have decided, please share the label of that item.
Response line: P
(P: 7.80, Q: 8.10)

* * *

- Target entity: EGFR (d746-750 T790M C797S) (Homo sapiens (Human), UniProt P00533, C797S/DEL746-750/T790M)
- Sequence (P00533 other isoform, or with tags, fused parts or gaps T790M/C797S/del 1-694/del 746-750 limits assumed): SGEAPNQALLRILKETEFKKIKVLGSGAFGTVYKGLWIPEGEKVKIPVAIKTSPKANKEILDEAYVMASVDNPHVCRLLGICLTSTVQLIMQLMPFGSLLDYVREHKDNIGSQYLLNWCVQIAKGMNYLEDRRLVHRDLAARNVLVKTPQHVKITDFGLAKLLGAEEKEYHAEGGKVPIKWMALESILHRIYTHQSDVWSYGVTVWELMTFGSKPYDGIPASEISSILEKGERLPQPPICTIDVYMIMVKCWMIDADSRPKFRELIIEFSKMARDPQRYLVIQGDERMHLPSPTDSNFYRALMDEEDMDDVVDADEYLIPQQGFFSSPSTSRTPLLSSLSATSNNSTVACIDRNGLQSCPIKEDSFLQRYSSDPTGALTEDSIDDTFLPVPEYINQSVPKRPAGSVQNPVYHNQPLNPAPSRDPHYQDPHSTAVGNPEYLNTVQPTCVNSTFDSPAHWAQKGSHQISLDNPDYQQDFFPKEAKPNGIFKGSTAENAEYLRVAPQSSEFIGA
- Test description: Biochemical EGFR inhibition assay (TR-FRET, poly-GT substrate), EGFR d746-750 T790M C797S
- Measurement context: 100 μM ATP
pIC50: −log10 of the molar value.
Value type: pIC50

{"columns": ["Compound", "Target entity", "pIC50"],
 "data": [
  ["Cn1cc(-c2cc(C(=O)/N=c3\\[nH]c4ccccc4n3CC(C)(C)O)ccn2)cn1 [I-001]", "EGFR (d746-750 T790M C797S) (Homo sapiens (Human), UniProt P00533, C797S/DEL746-750/T790M)", 7.14]
]}

(P) CN1CCN(c2ccc3c(c2)[nH]/c(=N\C(=O)c2ccnc(-c4cnn(C)c4)c2)n3CC(C)(C)O)CC1 [I-022]
(Q) COC(=O)Cc1ccc2c(c1)[nH]/c(=N\C(=O)c1ccnc(-c3cnn(C)c3)c1)n2CC(C)(C)O [I-055]
(R) Cn1cc(-c2cc(C(=O)/N=c3\[nH]c4ccccc4n3C3CCC3)ccn2)cn1 [I-019]
Prompt line: Rank entries according to their pIC50, from the largest number down. # list labels per requested ordering
Response line: Q, R, P
(Q: 8.14, R: 7.58, P: 7.21)

* * *

- Target entity: EGFR (mutated) 695-1022, T790M, C797S, L858R (Homo sapiens (Human), UniProt P00533, C797S/L858R/T790M)
- Sequence (P00533 695-1022 T790M/C797S/L858R): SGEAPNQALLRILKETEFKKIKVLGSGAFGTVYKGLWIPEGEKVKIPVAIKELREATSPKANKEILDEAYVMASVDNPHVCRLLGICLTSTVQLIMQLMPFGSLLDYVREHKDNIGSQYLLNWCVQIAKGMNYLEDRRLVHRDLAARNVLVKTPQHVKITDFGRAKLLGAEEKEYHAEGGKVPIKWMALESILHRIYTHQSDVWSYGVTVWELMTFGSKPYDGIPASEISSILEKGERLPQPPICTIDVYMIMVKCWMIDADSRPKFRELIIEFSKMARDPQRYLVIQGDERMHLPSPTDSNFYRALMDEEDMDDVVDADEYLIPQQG
- Test description: Biochemical EGFR inhibition assay (TR-FRET, poly-GT substrate), EGFR T790M C797S L858R
- Measurement context: read-out: LR_TM_CS (100 μM ATP) IC50; 100 μM ATP
pIC50: −log10 of the molar value.
Value type: pIC50

Worked examples, 3 molecules total:
{"columns": ["Smiles repr", "pIC50"],
 "data": [
  ["CN1CCC(c2ccc3c(c2)[nH]/c(=N\\C(=O)c2ccnc(-c4cnn5cccnc45)c2)n3CC(C)(C)O)CC1", 8.52],
  ["CCCn1/c(=N/C(=O)c2ccnc(-c3cnn(C)c3)c2)[nH]c2ccccc21", 6.84],
  ["COCCCNc1ccc2c(c1)[nH]/c(=N\\C(=O)c1ccnc(-c3cccnc3)c1)n2CC(C)(C)O", 7.02]
]}

(P) CC(=O)N1CCC(c2ccc3c(c2)[nH]/c(=N\C(=O)c2ccnc(-c4cnn(C)c4)c2)n3C2CCCC2)CC1
(Q) Cc1nn(C)cc1-c1cc(C(=O)/N=c2\[nH]c3ccccc3n2C2CCCC2)ccn1
(R) CC(C)(O)Cn1/c(=N/C(=O)c2ccnc(-n3cnc4ccccc43)c2)[nH]c2ccccc21
(S) COc1ccncc1-c1cc(C(=O)/N=c2\[nH]c3cc(C4CCN(C)CC4)ccc3n2CC(C)(C)O)ccn1
(T) CC(C)(O)Cn1/c(=N/C(=O)c2ccnc(-c3ccccc3)c2)[nH]c2ccccc21
Prompt line: Put the entries in order of pIC50, starting with the largest number. Thanks in advance for listing the labels in the requested order.
Response line: S, P, Q, T, R
(S: 8.38, P: 7.40, Q: 6.98, T: 6.57, R: 6.29)

* * *

- Target entity: EGFR (mutated) 695-1022, T790M, C797S, L858R (Homo sapiens (Human), UniProt P00533, C797S/L858R/T790M)
- Test description: Biochemical EGFR inhibition assay (TR-FRET, poly-GT substrate), EGFR T790M C797S L858R
- Measurement context: read-out: LR_TM_CS (100 μM ATP) IC50; 100 μM ATP
pIC50: −log10 of the molar value.
Value type: pIC50

Worked examples follow.
{"columns": ["Smiles repr", "Result number"],
 "data": [
  ["CN1CCN(c2ccc3c(c2)[nH]/c(=N\\C(=O)c2ccnc(-c4cnn(C)c4)c2)n3CC(C)(C)O)CC1", 6.77],
  ["Cn1cc(-c2cc(C(=O)/N=c3\\[nH]c4cc(C5CCN(C6CC6)CC5)ccc4n3CC(C)(C)O)ccn2)cn1", 7.61]
]}

(P) Cn1cc(-c2cc(C(=O)/N=c3\[nH]c4ccccc4n3[C@H]3CC[C@H](O)C3)ccn2)cn1
(Q) Cc1ccc2[nH]/c(=N\C(=O)c3ccnc(-c4cnn(C)c4)c3)n(CC(C)(C)O)c2c1
Prompt line: Look at P and Q . Which one has the lower recorded pIC50 number? # respond with the chosen item's label
Response line: Q

* * *

- Target entity: EGFR del19 T790M C797S protein in Ba/F3 cells (Homo sapiens, UniProt P00533, C797S/DEL746-750/T790M)
- Test description: pEGFR assay (AlphaScreen Surefire, EGFR Tyr1068 phosphorylation)
Value type: IC50 (nM)

Reference set, count: 2
{"columns": ["Compound", "IC50 / nM"],
 "data": [
  ["COc1ccccc1-c1cc(C(=O)/N=c2\\[nH]c3ccccc3n2[C@@H]2CCC[C@H](O)C2)ccn1 [I-129]", 5],
  ["Cc1ccccc1-c1cc(C(=O)/N=c2\\[nH]c3ccccc3n2[C@H]2CC[C@@H](O)CC2)ccn1 [I-166]", 7]
]}

(1) Cc1cccc(-c2cc(C(=O)/N=c3\[nH]c4ccccc4n3[C@H]3CC[C@@H](O)CC3)ccn2)c1 [I-161]
(2) CC(C)(O)Cn1/c(=N/C(=O)c2ccnc(-c3ccccc3)c2)[nH]c2ccccc21 [I-064]
Prompt line: Returns the identifier with the smallest measured IC50 among 1 and 2 . Return value: the label identifying the chosen record.
Response line: 1
(1: 6 nM, 2: 9 nM)

* * *

- Target entity: EGFR del19 T790M C797S protein in Ba/F3 cells (Homo sapiens, UniProt P00533, C797S/DEL746-750/T790M)
- Test description: pEGFR assay (AlphaScreen Surefire, EGFR Tyr1068 phosphorylation)
pIC50: −log10 of the molar value.
Value type: pIC50

{"columns": ["Compound", "pIC50"],
 "data": [
  ["Cn1cc(-c2cc(C(=O)/N=c3\\[nH]c4cc(C5CCNCC5)ccc4n3[C@H]3CC[C@@H](O)CC3)ccn2)cn1 [I-218]", 7.74]
]}

(A) O=C(/N=c1\[nH]c2ccccc2n1[C@H]1CC[C@@H](O)CC1)c1ccnc(-c2ccccc2OC(F)(F)F)c1 [I-187]
(B) COc1c(F)cccc1-c1cc(C(=O)/N=c2\[nH]c3ccccc3n2[C@H]2CC[C@@H](O)CC2)ccn1 [I-175]
Prompt line: Please indicate which entry, A or B , has the lower recorded pIC50 value. Let me know the label of the one you choose.
Response line: A

(P) Cn1cc(-c2cc(C(=O)/N=c3\[nH]c4cc(CCCO)ccc4n3CC(C)(C)O)ccn2)cn1 [I-184]
(Q) COc1ccccc1-c1cc(C(=O)/N=c2\[nH]c3ccccc3n2[C@H]2COCC[C@@H]2O)ccn1 [I-155]
Prompt line: Of P and Q , whose reported pIC50 is the larger number? Identify your pick by its label.
Response line: Q
(Q: 8.30, P: 7.72)

(A) COc1ccccc1-c1cc(C(=O)/N=c2\[nH]c3cc(CN4CCCCC4)ccc3n2CC(C)(C)O)ccn1 [I-059]
(B) COc1cnccc1-c1cc(C(=O)/N=c2\[nH]c3ccccc3n2CC(C)(C)O)ccn1 [I-164]
Prompt line: // compare measured pIC50, left A , right B , return larger Answer by quoting the chosen item's label.
Response line: A

(P) Cn1cc(-c2cc(C(=O)/N=c3\[nH]c4ccccc4n3[C@H]3CCC[C@H](O)C3)cc(C#N)n2)cn1 [I-210]
(Q) Cc1cc(C(=O)/N=c2\[nH]c3ccccc3n2[C@@H]2C[C@H](O)C[C@H](O)C2)cc(-c2cnn(C)c2)n1 [I-206]
Prompt line: Smaller pIC50 value, P vs Q ? Use the label to indicate which entry you chose.
Response line: Q
(Q: 7.43, P: 8.05)
